Assay summary: Urinary excretion of flavanol metabolites (0-24 h) after a single serving of soluble cocoa product (HPLC-ESI-QToF-MS)
Assay type: in vivo, human
Condition notes: after CC-PP (68.25 mg flavanols), mean ± SD, n = 13
The threshold is inclusive: Excreted in urine, 4–8 h of exactly 0.5 µmol counts as 1; values below receive 0.

Past entries and their recorded results:
Assess whether reported Excreted in urine, 4–8 h for O=C1CCC(Cc2ccc(O[C@@H]3O[C@H](C(=O)O)[C@@H](O)[C@H](O)[C@H]3O)c(O)c2)O1 (some centres unmarked) [HPVL-4′-glucuronide] sits at 0.5 µmol or higher. 0

Assess whether reported Excreted in urine, 4–8 h for O=C(O)CCc1ccc(O)c(O)c1 [3,4-Dihydroxyphenylpropionic acid] sits at 0.5 µmol or higher. 0

Could you tell me if the measured Excreted in urine, 4–8 h of O=C(O)Cc1cccc(O)c1 [Hydroxyphenylacetic acid, 3-Hydroxyphenylacetic acid] reaches 0.5 µmol or more? 1

Confirm if Excreted in urine, 4–8 h reported for the compound O=S(=O)(O)Oc1cc([C@H]2Oc3cc(O)cc(O)c3C[C@H]2O)ccc1O [Epicatechin-3′-sulfate] is 0.5 µmol or above. 1

Threshold query (Excreted in urine, 4–8 h >= 0.5 µmol) on O=C1CCC(Cc2cccc(OC3OC(C(=O)O)C(O)C(O)C3O)c2)O1 (centres unmarked) [PVL-3′glucuronide, 5-Phenyl-γ-valerolactone-3′-glucuronide] 1

Does the compound O=C(O)C1OC(Oc2cc(C3Oc4cc(O)cc(O)c4CC3O)ccc2O)C(O)C(O)C1O (centres unmarked) [Epicatechin-3′-glucuronide] have recorded Excreted in urine, 4–8 h that is 0.5 µmol or more? 1

Threshold query (Excreted in urine, 4–8 h >= 0.5 µmol) on O=C(O)Cc1ccc(O)c(O)c1 [3,4-Dihydroxyphenylacetic acid] 1

# next compound below
Quick check: does COc1ccc(/C=C/C(=O)O)cc1O [Isoferulic acid] have Excreted in urine, 4–8 h greater than or equal to 0.5 µmol? 0

* * *

Assay summary: Urinary excretion of flavanol metabolites (0-24 h) after a single serving of soluble cocoa product (HPLC-ESI-QToF-MS)
Format: in vivo, human
Condition notes: CC intervention, basal urine (−2–0 h, before intake), mean ± SD, n = 13
Value type: Excreted in urine, Basal

Example molecules with recorded Excreted in urine, Basal:
If you can, please state the reported Excreted in urine, Basal value of O=C1CCC(Cc2ccc(O[C@@H]3O[C@H](C(=O)O)[C@@H](O)[C@H](O)[C@H]3O)c(O)c2)O1 (stereo partly drawn) [HPVL-4′-glucuronide] . <L.Q.

State the recorded Excreted in urine, Basal for this entry: O=C(O)CCc1ccc(O)cc1 [Hydroxyphenylpropionic acid] 0.118 ± 0.023 µmol

# Excreted in urine, Basal lookup, item O=C(O)Cc1ccc(O)c(O)c1 [3,4-Dihydroxyphenylacetic acid] 0.094 ± 0.032 µmol

Reported Excreted in urine, Basal, molecule O=C1CCC(Cc2ccc(O)c(O)c2)O1 (stereo not drawn) : ____ <L.Q.

# Excreted in urine, Basal lookup, item COc1cc(CC(=O)O)ccc1O [3-Methoxy-4-hydroxyphenylacetic acid] 0.103 ± 0.014 µmol

Moving on to another molecule below.
// lookup Excreted in urine, Basal for O=C(O)CCc1ccc(O)c(O)c1 [3,4-Dihydroxyphenylpropionic acid] 0.117 ± 0.024 µmol

The values you see were collected from paper PMC6683251.
